# protocol: in vivo
# Format: in vivo, beagle dogs
# measurementSetup: male, dog, in vivo, iv; beagle dogs, i.v. 1 mg/kg; read-out: MRTINF—obs
readoutKind: MRT inf (min)

In [3]: df
Out[3]:
                                   compound  unitslabel  assayvalue
0  COC[C@@H](NC(=O)C1CCCC(F)(F)C1)C(=O)N[C@H](Cc1ccccc1)C(=O)C(=O)NCc1nccs1 (stereo partly shown) [Compound 398]         min        28.2

* * *

# experimentalSystem: recombinant SARS-CoV-2 M^pro (Severe acute respiratory syndrome coronavirus 2 (2019-nCoV) (SARS-CoV-2), UniProt P0DTD1)
# protocol: Inhibition of SARS-CoV-2 M^pro enzyme activity (fluorescent substrate assay)
# Type: biochemical
# measurementSetup: inhibition of SARS-CoV-2 M^pro enzyme activity; values in nM; read-out: IC50
The label is criterion met for IC50 below 60 nM and criterion not met for IC50 equal to or exceeding 60 nM.

>>> print(df.to_string())
                                   compound          classname
0  C[C@@H](NC(=O)c1cc(OC(F)(F)F)ccc1F)C(=O)N[C@H](Cc1ccccc1)C(=O)C(=O)NCc1nccs1 [Compound 385]      criterion met
1  O=C(NCc1ccccn1)C(=O)[C@@H](Cc1ccccc1)NC(=O)C(NC(=O)c1ccc(F)cc1)C(F)(F)F (stereo partly drawn) [Compound 249]  criterion not met
2  CC(C)(OCc1ccc(OC(F)(F)F)cc1)C(=O)N[C@H](Cc1ccccc1)C(=O)C(=O)NCc1ccccn1 [Compound 17]      criterion met
3  COC[C@@H](NC(=O)C1CCCC(F)(F)C1)C(=O)N[C@H](Cc1ccccc1)C(=O)C(=O)NCc1ncsn1 (stereo partly drawn) [Compound 564]  criterion not met
4  CC(C)[C@@H]1CC[C@@H](C)C[C@H]1OCC(=O)NC1(C(=O)N[C@H](Cc2ccccc2)C(=O)C(=O)NCc2ccccn2)CCC1 [Compound 206]      criterion met
5  O=C(NCc1ccccn1)C(=O)[C@@H](Cc1ccccc1)NC(=O)[C@H]1COCCN1C(=O)[C@@H]1C[C@@H]2[C@H](C1)C2(F)F [Compound 293]      criterion met

* * *

Recorded measurements of IC50, one per entry
# experimentalSystem: recombinant SARS-CoV-2 M^pro (Severe acute respiratory syndrome coronavirus 2 (2019-nCoV) (SARS-CoV-2), UniProt P0DTD1)
# protocol: Inhibition of SARS-CoV-2 M^pro enzyme activity (fluorescent substrate assay)
# Type: biochemical
# measurementSetup: inhibition of SARS-CoV-2 M^pro enzyme activity; values in nM; read-out: IC50
readoutKind: IC50 (nM)

In [3]: df
Out[3]:
                                   compound  unitslabel  assayvalue
0  C[C@@H](NC(=O)C1CCC(F)(F)CC1)C(=O)N[C@H](Cc1ccccc1)C(=O)C(=O)NCc1ncccn1 [Compound 337]          nM        87.9
1  O=C(NCc1ccccn1)C(=O)[C@@H](Cc1ccccc1)NC(=O)[C@H]1C[C@H]2C[C@H]2N1C(=O)C1CCC(F)(F)CC1 [Compound 269]          nM        19.6
2  O=C(NCc1nccs1)C(=O)[C@@H](Cc1ccccc1)NC(=O)[C@H]1CC(F)(F)CN1C(=O)C1CCC(F)(F)C1 (stereo partly drawn) [Compound 404]          nM        47.7
3  C[C@@H](NC(=O)CC1CCC(F)(F)CC1)C(=O)N[C@H](Cc1ccccc1)C(=O)C(=O)NCc1ccccn1 [Compound 125]          nM        19.7
4  C[C@@H](NC(=O)CC1CCC(F)(F)CC1)C(=O)N[C@H](Cc1ccccc1)C(=O)C(=O)NCc1cscn1 [Compound 419]          nM         9.8
5  O=C(NCc1ccccn1)C(=O)[C@@H](Cc1ccccc1)NC(=O)[C@@H]1CC(F)(F)CN1C(=O)[C@@H]1C[C@@H]2[C@H](C1)C2(F)F [Compound 453]          nM        37.2
